- experimental-protocol: qHTS Assay for Lipid Storage Modulators (AID 1519); note: % is set by controls: 0 for no effect and ±100 for the full control effect
- setup-conditions: Drosophila S3 cells, BODIPY lipid droplet/cell ratio, laser cytometry; at 25.7 µM (top of the series); cells loaded with oleic acid
Inconclusive results are not listed.
measured-attribute: activity change, negative = inhibition (%)
Please respond with the number in % and leave the unit unwritten.

## Input Which activity change, negative = inhibition is reported for this molecule? C[C@H](O)Cn1cnc2c1c(=O)n(C)c(=O)n2C
## Output 0.562

## Input Which activity change, negative = inhibition is reported for this molecule? CN[C@]1(C)[C@H]2CC[C@@H](C2)C1(C)C
## Output -3.7

## Input Which activity change, negative = inhibition is reported for this molecule? S=C(NC1CCCCC1)N1CCC([C@H]2C=NC=N2)CC1
## Output 2.27

## Input Which activity change, negative = inhibition is reported for this molecule? CN[C@H]1[C@H](O)[C@@H](O[C@@H]2[C@H](O)[C@@H](O[C@H]3OC(CN)=CC[C@H]3N)[C@@H](N)C[C@H]2N)OC[C@@]1(C)O
## Output 0.656

## Input Which activity change, negative = inhibition is reported for this molecule? Nc1ncnc2c1ncn2[C@@H]1O[C@H](COP(=O)(O)O)[C@@H](O)[C@@H]1O
## Output -0.35

Continuing:
## Input Which activity change, negative = inhibition is reported for this molecule? NC[C@@H]1O[C@H](O[C@H]2[C@H](O)[C@@H](O[C@H]3[C@H](O)[C@H](N)C[C@H](N)[C@H]3O[C@@H]3O[C@H](CO)[C@@H](O)[C@H](O)[C@@H]3N)O[C@H]2CO)[C@@H](N)[C@H](O)[C@@H]1O
## Output -3.71

## Input Which activity change, negative = inhibition is reported for this molecule? C=C1CC[C@H](O)C/C1=C/C=C1\CCC[C@]2(C)[C@H]1CC[C@H]2[C@@H](C)/C=C\[C@@H](C)C(C)C
## Output 0.549

## Input Which activity change, negative = inhibition is reported for this molecule? CC1=CC(=O)C2=C(C)CC[C@@H]3[C@@H](OC(=O)[C@H]3C)[C@H]12
## Output 0.93

---

- Tested on: ECU
- experimental-protocol: qHTS profiling for inhibitors of Plasmodium falciparum proliferation (AID 504749); note: nearly all actives have a fitted effect of over 60% in size; note: potency is the fitted concentration of half-maximal effect
- setup-conditions: P. falciparum in erythrocytes, SYBR Green DNA, 72 h; series mostly up to 12.8 µM
Inconclusive results are not listed. Active and inactive are the calls of the source. Calls follow the shape of the dose curve; as a rule, active = well fitted inhibition curve with a large enough effect; inconclusive = small, poorly fitted or top-dose-only effect; inactive = flat fitted curve, though single readings scatter.
measured-attribute: Potency

Example entries begin here.
## Input Which Potency is reported for this molecule? C[C@@]12CCC(=O)C=C1C=CC1C2CC[C@]2(C)C1CC[C@@]21CCC(=O)O1 (some centres not stated)
## Output inactive

## Input Which Potency is reported for this molecule? CO[C@@H]1C[C@H](O[C@H]2[C@@H](C)[C@H](O[C@@H]3O[C@@H](C)C[C@@H](N(C)C)[C@@H]3OC(C)=O)[C@H](C)C[C@]3(CO3)C(=O)[C@H](C)[C@H](OC(C)=O)[C@H](C)[C@H](C)OC(=O)[C@@H]2C)O[C@H](C)[C@@H]1OC(C)=O
## Output inactive

## Input Which Potency is reported for this molecule? CO[C@H]1[C@@H](OC(N)=O)[C@H](O)[C@@H](Oc2ccc3c(O)c(NC(=O)c4ccc(O)c(CC=C(C)C)c4)c(=O)oc3c2C)OC1(C)C
## Output inactive

## Input Which Potency is reported for this molecule? COc1cc(N[C@@H](C)CCCN)c2ncccc2c1
## Output 1 µM (active)

## Input Which Potency is reported for this molecule? CCC[C@@H]1O[C@@H]2C[C@@H]3[C@H]4CCC5=CC(=O)C=C[C@@]5(C)[C@H]4[C@H](O)C[C@@]3(C)[C@@]2(C(=O)CO)O1
## Output 7.08 µM (active)

## Input Which Potency is reported for this molecule? COc1ccc2cc(C(C)CO)ccc2c1 (configuration not stated)
## Output inactive

Turning now to a further record.
## Input Which Potency is reported for this molecule? CC1C2CCC3C4CC=C5CC(N(C)C)CC[C@@]5(C)C4CC[C@@]32CN1C (some centres not stated)
## Output inactive
